biological target: UGT2B4 (Homo sapiens); assay: UGT2B4 supersomes-catalyzed 4-MU glucuronidation inhibition; conditions: 50 μM LPC components; recombinant human UGT; mean of triplicate
Sequence (P06133 24-528): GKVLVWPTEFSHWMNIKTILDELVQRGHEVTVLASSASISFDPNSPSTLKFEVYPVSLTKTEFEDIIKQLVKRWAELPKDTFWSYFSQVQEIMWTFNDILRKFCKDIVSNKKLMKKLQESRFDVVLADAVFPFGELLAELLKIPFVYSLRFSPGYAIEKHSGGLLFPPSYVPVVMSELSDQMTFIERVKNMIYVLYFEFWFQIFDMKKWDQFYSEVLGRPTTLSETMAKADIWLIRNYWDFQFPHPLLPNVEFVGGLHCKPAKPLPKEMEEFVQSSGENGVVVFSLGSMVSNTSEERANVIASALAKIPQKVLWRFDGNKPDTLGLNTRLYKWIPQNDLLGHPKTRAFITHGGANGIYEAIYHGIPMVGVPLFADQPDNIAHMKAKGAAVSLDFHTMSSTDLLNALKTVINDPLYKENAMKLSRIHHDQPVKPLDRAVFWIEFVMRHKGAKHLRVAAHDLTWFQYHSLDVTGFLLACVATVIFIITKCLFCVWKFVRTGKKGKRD
Give residual activity 2B4 for every item shown.
Value expressed in %; do not type the unit.

**Query** Could you share which residual activity 2B4 value was measured for CCCCCCCCCCCCC(=O)OC[C@@H](O)COP(=O)([O-])OCC[N+](C)(C)C ?
**Result** 239.4

**Query** So what does the record say about residual activity 2B4 for CCCCCCC(=O)OCC(O)COP(=O)([O-])OCC[N+](C)(C)C (stereo not drawn) ?
**Result** 183.5

**Query** # input molecule: CCCCCCCCCCCCCCCCC(=O)OC[C@@H](O)COP(=O)([O-])OCC[N+](C)(C)C ; wanted: its residual activity 2B4
**Result** 333.4

**Query** Consider the molecule CCCCCCCCCCCCCCCCCC(=O)OC[C@@H](O)COP(=O)([O-])OCC[N+](C)(C)C and give its measured residual activity 2B4.
**Result** 280.4

**Query** Reported residual activity 2B4, molecule CCCCCCCCCCC(=O)OC[C@@H](O)COP(=O)([O-])OCC[N+](C)(C)C : ____
**Result** 217.6

**Query** What residual activity 2B4 value was documented for this molecule, CCCCCCCC(=O)OCC(O)COP(=O)([O-])OCC[N+](C)(C)C (stereo not drawn) ?
**Result** 185.0

**Query** Fill in: residual activity 2B4 of CCCCCCCCCCCCCCC(=O)OC[C@@H](O)COP(=O)([O-])OCC[N+](C)(C)C is ___
**Result** 152.6

**Query** Value lookup for residual activity 2B4; key = CCCCCCCCCCCC(=O)OC[C@@H](O)COP(=O)([O-])OCC[N+](C)(C)C
**Result** 255.5

**Query** Would you kindly share the measured residual activity 2B4 for CCCCCCCCCC(=O)OC[C@@H](O)COP(=O)([O-])OCC[N+](C)(C)C ?
**Result** 208.4

**Query** Using the record for CCCCCCCCC(=O)OC[C@@H](O)COP(=O)([O-])OCC[N+](C)(C)C , report its residual activity 2B4.
**Result** 179.1

**Query** Look up residual activity 2B4: CCCCCC(=O)OC[C@@H](O)COP(=O)([O-])OCC[N+](C)(C)C
**Result** 183.6

**Query** Item CCCCCCCCCCCCCC(=O)OC[C@@H](O)COP(=O)([O-])OCC[N+](C)(C)C has what recorded residual activity 2B4?
**Result** 217.1

All figures here come from paper PMC6631349.
